System: Escherichia coli TOP10
procedure_summary: shrunken log2 fold change of peptide-encoding DNA abundance (4.5 h post-induction vs induction); higher = less antimicrobial activity (less host growth inhibition)
condition_parameters: time post-induction: 4.5 h; library: site-saturation at positions 5, 18, 19, 20
Please provide measured shrunken log2 fold change for the entries that follow.
When you answer, write just the number.

IN: Write shrunken log2 fold change of RRIRIRPPRLPRPRPRPFVTPRP ; system used: Escherichia coli TOP10
OUT: -0.938

IN: Write shrunken log2 fold change of RRIRFRPPRLPRPRPRPEGKPRP ; system used: Escherichia coli TOP10
OUT: 0.143

IN: Write shrunken log2 fold change of RRIRQRPPRLPRPRPRPTLMPRP ; system used: Escherichia coli TOP10
OUT: 0.369

IN: Write shrunken log2 fold change of RRIRTRPPRLPRPRPRPAMHPRP ; system used: Escherichia coli TOP10
OUT: 0.289

IN: Write shrunken log2 fold change of RRIRDRPPRLPRPRPRPNINPRP ; system used: Escherichia coli TOP10
OUT: -0.35

IN: Write shrunken log2 fold change of RRIRMRPPRLPRPRPRPDYKPRP ; system used: Escherichia coli TOP10
OUT: 0.248

IN: Write shrunken log2 fold change of RRIRSRPPRLPRPRPRPQWNPRP ; system used: Escherichia coli TOP10
OUT: -0.259

IN: Write shrunken log2 fold change of RRIRCRPPRLPRPRPRPQPRPRP ; system used: Escherichia coli TOP10
OUT: 0.745

IN: Write shrunken log2 fold change of RRIRDRPPRLPRPRPRPIDIPRP ; system used: Escherichia coli TOP10
OUT: -0.0169

IN: Write shrunken log2 fold change of RRIRPRPPRLPRPRPRPMHYPRP ; system used: Escherichia coli TOP10
OUT: -0.336

IN: Write shrunken log2 fold change of RRIRTRPPRLPRPRPRPPWIPRP ; system used: Escherichia coli TOP10
OUT: 0.161

IN: Write shrunken log2 fold change of RRIRVRPPRLPRPRPRPRSVPRP ; system used: Escherichia coli TOP10
OUT: 0.0756

IN: Write shrunken log2 fold change of RRIRMRPPRLPRPRPRPTYVPRP ; system used: Escherichia coli TOP10
OUT: -0.197

IN: Write shrunken log2 fold change of RRIRLRPPRLPRPRPRPVCGPRP ; system used: Escherichia coli TOP10
OUT: 0.227

IN: Write shrunken log2 fold change of RRIRLRPPRLPRPRPRPPCLPRP ; system used: Escherichia coli TOP10
OUT: 0.0124

IN: Write shrunken log2 fold change of RRIRPRPPRLPRPRPRPPPRPRP ; system used: Escherichia coli TOP10
OUT: 0.91

IN: Write shrunken log2 fold change of RRIRFRPPRLPRPRPRPAGKPRP ; system used: Escherichia coli TOP10
OUT: 0.279

IN: Write shrunken log2 fold change of RRIRMRPPRLPRPRPRPFRVPRP ; system used: Escherichia coli TOP10
OUT: 0.22

IN: Write shrunken log2 fold change of RRIRYRPPRLPRPRPRPASSPRP ; system used: Escherichia coli TOP10
OUT: -0.0244

IN: Write shrunken log2 fold change of RRIRRRPPRLPRPRPRPVNYPRP ; system used: Escherichia coli TOP10
OUT: -0.291

IN: Write shrunken log2 fold change of RRIRDRPPRLPRPRPRPMVYPRP ; system used: Escherichia coli TOP10
OUT: 0.225

IN: Write shrunken log2 fold change of RRIRWRPPRLPRPRPRPSNMPRP ; system used: Escherichia coli TOP10
OUT: -0.923

IN: Write shrunken log2 fold change of RRIRGRPPRLPRPRPRPWHVPRP ; system used: Escherichia coli TOP10
OUT: -0.0733

IN: Write shrunken log2 fold change of RRIRWRPPRLPRPRPRPISTPRP ; system used: Escherichia coli TOP10
OUT: -0.399

IN: Write shrunken log2 fold change of RRIRFRPPRLPRPRPRPITLPRP ; system used: Escherichia coli TOP10
OUT: -0.274

IN: Write shrunken log2 fold change of RRIRMRPPRLPRPRPRPDREPRP ; system used: Escherichia coli TOP10
OUT: -0.00516

IN: Write shrunken log2 fold change of RRIRERPPRLPRPRPRPPAVPRP ; system used: Escherichia coli TOP10
OUT: 0.349

IN: Write shrunken log2 fold change of RRIRERPPRLPRPRPRPDVSPRP ; system used: Escherichia coli TOP10
OUT: 0.0276

IN: Write shrunken log2 fold change of RRIRIRPPRLPRPRPRPSYKPRP ; system used: Escherichia coli TOP10
OUT: -1.42

IN: Write shrunken log2 fold change of RRIRCRPPRLPRPRPRPNQCPRP ; system used: Escherichia coli TOP10
OUT: 2.64

IN: Write shrunken log2 fold change of RRIRNRPPRLPRPRPRPNKTPRP ; system used: Escherichia coli TOP10
OUT: -0.0415

IN: Write shrunken log2 fold change of RRIRDRPPRLPRPRPRPKFCPRP ; system used: Escherichia coli TOP10
OUT: -0.0512

IN: Write shrunken log2 fold change of RRIRCRPPRLPRPRPRPLPNPRP ; system used: Escherichia coli TOP10;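 further: peptides expressed intracellularly from a pBAD plasmid library in pooled LB shake-flask culture, induced with 0.3% L-arabinose, DNA abundance read by NGS, three biological replicates, DESeq2 with apeglm shrinkage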
OUT: -0.0586

Data credit: the supplement of paper PMC9112550
